# Test system: CDK6
# Design: species or system human, MV4-11 + K-562 + COLO205 + SK-N-BE2 + OVCAR-8
# run conditions: read-out: apparent Kd; compound concentrations:100 nM and 1000 nM (sheet 'Samples'); n = 1
measurement type: potency estimated from few doses

# count of solved cases: 3
{"compound": "Nc1n[nH]c2nnc(-c3ccccc3)cc12", "potency estimated from few doses": "1870 nM"}
{"compound": "O=C(Nc1n[nH]c2cc(-c3ccsc3)ccc12)C1CC1", "potency estimated from few doses": "1430 nM"}
{"compound": "N#Cc1cccc(Nc2nccc(-c3cnn4ncccc34)n2)c1 [GW778894X]", "potency estimated from few doses": "1970 nM"}

Kindly review the next compound as well.
Prompt: Given the compound COc1cc[nH]c1/C=C1\C(=O)Nc2ccc(F)c(C#C[C@@H](O)[C@@H](N)[C@@H](C)O)c21 , write its reported potency estimated from few doses.
Response: 1140 nM
